Reference source for all entries: patent US8637556B2

- system: c-Myc353-437 (monomeric c-Myc bHLH-ZIP) (Homo sapiens, UniProt P01106)
- Construct: recombinant monomeric c Myc bHLH-ZIP (amino acids 353-437); 6xHis with TEV site (N, cleaved yes); made in house; host or cells: E. coli BL21DE3(pLysS)
- Sequence (P01106 368-452): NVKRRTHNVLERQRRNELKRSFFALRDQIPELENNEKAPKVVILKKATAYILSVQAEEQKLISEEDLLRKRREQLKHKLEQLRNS
- experiment: Fluorescence polarization titration, c-Myc bHLH-ZIP binding
- condition-parameters: Table 1; FP of nitrobenzofurazan moiety, c-Myc353-437; read-out: KD (c-Myc affinity, bivalent)
measured-metric: Kd (nM)
A number alone suffices; assume nM.

Solved entries:
# compound, Kd / nM
records = [
    ("CCc1ccc(C=C2SC(=O)N(CCCCCCNC(=O)c3cccc(Nc4ccc([N+](=O)[O-])c5nonc45)c3)C2=O)cc1 [compound 17]", 110),
    ("CCc1ccc(/C=C2\\SC(=O)N(CCCCCCNC(=O)c3ccccc3Nc3ccc([N+](=O)[O-])c4nonc34)C2=O)cc1 [compound 16]", 2.2),
    ("CCc1ccc(C=C2SC(=O)N(CCCCNC(=O)c3ccc(Nc4ccc([N+](=O)[O-])c5nonc45)cc3)C2=O)cc1 [compound 21]", 4),
    ("O=C1NC(=S)S/C1=C\\c1ccc(C(=O)NCCCCCNC(=O)c2cccc(Nc3ccc([N+](=O)[O-])c4nonc34)c2)cc1 [compound 12]", 400),
]

Proceed to the following item.
Find the measured Kd: item O=C1NC(=S)SC1=Cc1ccc(C(=O)NCCCCCNC(=O)c2ccc(Nc3ccc([N+](=O)[O-])c4nonc34)cc2)cc1 [compound 13] , target or system c-Myc353-437 (monomeric c-Myc bHLH-ZIP) (Homo sapiens, UniProt P01106).
4.7

* * *

- system: c-Myc 400-439 (Homo sapiens)
- Construct: its truncated version c-Myc390-439 were produced from the c-Myc/pET SKB3 construct; 6xHis with TEV site (N, cleaved yes)
- Sequence (P01106 405-454): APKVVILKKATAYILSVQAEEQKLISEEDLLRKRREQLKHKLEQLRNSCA
- experiment: Fluorescence polarization titration, truncated c-Myc segment
- condition-parameters: Table 2; segment with binding site of 2; read-out: Binding affinity to c-Myc 400-439
measured-metric: Kd (nM)
A number alone suffices; assume nM.

Find the measured Kd: item `O=C1NC(=S)SC1=Cc1ccc(C(=O)NCCCCCNC(=O)c2ccc(Nc3ccc([N+](=O)[O-])c4nonc34)cc2)cc1` , target or system c-Myc 400-439 (Homo sapiens).
53

* * *

- system: c-Myc353-437 (monomeric c-Myc bHLH-ZIP) (Homo sapiens, UniProt P01106)
- Construct: recombinant monomeric c Myc bHLH-ZIP (amino acids 353-437); 6xHis with TEV site (N, cleaved yes); made in house; host or cells: E. coli BL21DE3(pLysS)
- experiment: Fluorescence polarization titration, c-Myc bHLH-ZIP binding
- condition-parameters: Table 1; FP titration with c-Myc353-437, 1xPBS pH 7.4, 5% DMSO; read-out: KD (c-Myc affinity, monovalent)
hey, just use Y if measured Kd is less than 10 µM, otherwise N

# molecule, class
records = [
    ("O=C(O)c1cccc(Nc2ccc([N+](=O)[O-])c3nonc23)c1 [compound 6]", "N"),
    ("O=[N+]([O-])c1ccc(Nc2ccccc2)c2nonc12 [compound 3]", "Y"),
]

For CC(=O)NCCCCCNC(=O)c1ccc(C=C2SC(=S)NC2=O)cc1 [compound 10] , is the recorded Kd below the cut-off of 10 µM?
N

Now give it for O=C(O)c1ccc(Nc2ccc([N+](=O)[O-])c3nonc23)cc1 [compound 7] too.
Y

Now give it for O=C(O)c1ccccc1Nc1ccc([N+](=O)[O-])c2nonc12 [compound 5] too.
N

Now give it for CN(C)c1ccc([N+](=O)[O-])c2nonc12 [compound 4] too.
N
